FYI, the data here is from patent US11498899B2.

- System: barnyardgrass (Echinochloa crus-galli)
- assayProtocol: Test B flooded paddy test, visual rating 0-100
- experimentalParameters: Flood, 250 g ai/ha, applied to paddy water, rated after 13 to 15 days
endpoint: Barnyardgrass plant response rating (0 to 100 scale)
Numbers only.

Below are worked cases with known answers.
| molecule | dataValue |
| --- | --- |
| CC1=[N+]([O-])C(C(=O)Nc2cccc(F)c2F)C(c2ccc(C(F)(F)F)cc2F)C1 (stereo not shown) | 50 |
| CC(C)C1=[N+]([O-])C(C(=O)Nc2cccc(F)c2F)C(c2ccc(C(F)(F)F)cc2)C1 (racemic) | 0 |
| CC1=[N+]([O-])[C@H](C(=O)Nc2cccc(F)c2F)[C@@H](c2ccc(C)cc2)C1 (relative stereo) [Compound 6] | 85 |
| COc1cc(OC)cc(C2CC(C)=[N+]([O-])C2C(=O)Nc2cccc(F)c2F)c1 (stereo not shown) | 0 |
| CC1=[N+]([O-])C(C(=O)Nc2cccc(F)c2F)C(c2cccc(C3OCCO3)c2)C1 (racemic) | 0 |

Provide each entry's Barnyardgrass plant response rating (0 to 100 scale) from the list below.
1. CCOc1cc(OC)cc(C2CC(C)=[N+]([O-])C2C(=O)Nc2cccc(F)c2F)c1 (racemic)
2. COc1cc(C)cc(C2CC(C)=[N+]([O-])C2C(=O)Nc2cccc(F)c2F)c1 (stereo not shown)

Response:
1. 0
2. 65
